test: chemical genetic growth profiling, strain panel (AID 1159580);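 note: tested at 20 µM; growth read once vehicle control cultures reached saturation at 30 °C; 1 = growth at the plate median or of vehicle wells; lower values mean less growth of the strain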; details: S. cerevisiae deletion strains, growth OD, locus YER002W, strain NOP16
Screen size: about 5,500 compounds; about 2,000 (36%) were called active. About 18% were inconclusive and are not listed. Cut-off read from the data, not from the text of the source: active = normalized growth mostly below about 0.91 (no sharp cut-off); inconclusive = no clear call, values can overlap the other calls; inactive = mostly above about 0.92. Some of the results follow.
Pick one: active, inactive

• CCn1c(=O)c2[nH]c(-c3ccccc3)nc2n(CC)c1=O = inactive
• COc1ccc(C(=O)N2CCCC2=O)cc1 = inactive
• CN1C[C@H](CNC(=O)OCc2ccccc2)C[C@@H]2c3cccc4c3c(cn4C)C[C@H]21 = inactive
• NC(=O)C(=O)O = inactive
• C[C@H]1C2Cc3ccc(O)cc3[C@]1(C)CCN2CC1CC1 = inactive

Task: # outcome recorded in this test, key = CN(C)CCC(c1ccc(Br)cc1)c1ccccn1 (configuration not stated)
Output: inactive

Task: # outcome recorded in this test, key = CCCC(C(=O)OCCN(CC)CC)(c1ccccc1)c1ccccc1
Output: inactive

Task: # outcome recorded in this test, key = N[C@H](CCCCCP(=O)(O)O)C(=O)O
Output: inactive

Task: # outcome recorded in this test, key = NCC(CC(=O)O)c1ccc(Cl)cc1 (configuration not stated)
Output: inactive

Task: # outcome recorded in this test, key = CN1CCN(c2nc3cc(C(F)(F)F)ccc3n3cccc23)CC1
Output: inactive

###

# normalized growth values compiled below
assay: chemical genetic growth profiling, strain panel (AID 1159580); details: S. cerevisiae deletion strains, growth OD, locus YNR030W, strain Alg12, active compounds read low
Screen size: about 5,500 compounds; about 2,000 (36%) were called active. About 18% were inconclusive and are not listed. The list shows a part of the results.
API doc: respond with a numeric literal and nothing else, no unit.

Previously resolved entries follow.
• Cc1nn(Cc2n[nH]c(=S)o2)c(C)c1Br = 1.01
• Cc1cscc1S(=O)(=O)c1ccc(Cl)cc1 = 0.95
• Cc1c(S(=O)(=O)c2ccc(Cl)cc2)csc1C(=O)Nc1ccc(N2CCOCC2)c(Cl)c1 = 0.995
• COC(=O)COc1ccc(C(C)=O)cc1 = 0.98
• Cc1ccc(S(=O)(=O)Nc2ccc(C)c([N+](=O)[O-])c2)cc1 = 0.961
• O=C(CSc1nnc(NC(=O)c2cccc([N+](=O)[O-])c2)s1)Nc1ccc2c(c1)OCO2 = 1.01
• O=C(Nc1nccs1)c1ccc([N+](=O)[O-])cc1 = 0.97
• COc1ccc(CCNC(=S)NCCc2ccc(OC)c(OC)c2)cc1OC = 1
• O=C(O)Cc1ccccc1I = 1.03
• COc1cc(CC/C(C)=N/O)ccc1OCc1ccc(Cl)cc1Cl = 0.803

Measured normalized growth of O=C(NCc1nc(-c2ccc(C(F)(F)F)cc2)no1)Nc1ccc(F)cc1F : 0.988

Measured normalized growth of COc1ccc(C=Nc2ccc(O)cc2)cc1 : 1.01

Measured normalized growth of COc1ccc(N=Cc2ccccc2O)cc1 : 0.973

Measured normalized growth of COc1ccc(C(=O)C2CCNCC2)cc1 : 1.01

Measured normalized growth of CC(=O)c1ccc(-c2ccc(Cl)c(Cl)c2)o1 : 0.483

Measured normalized growth of Cc1cc(NS(=O)(=O)c2ccc(NS(=O)(=O)c3cc(C)c(Cl)cc3C)cc2)no1 : 1.01

Measured normalized growth of N#Cc1csc([N+](=O)[O-])c1 : 0.834

###

test: chemical genetic growth profiling, strain panel (AID 1159580);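 note: tested at 20 µM; growth read once vehicle control cultures reached saturation at 30 °C; 1 = growth at the plate median or of vehicle wells; lower values mean less growth of the strain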; details: S. cerevisiae deletion strains, growth OD, locus YOR069W, strain VPS5
In all, about 5,500 compounds went through this assay and about 2,000 (36%) were called active. Not shown: some 18% with an inconclusive outcome. Cut-off read from the data, not from the text of the source: active = normalized growth mostly below about 0.91 (no sharp cut-off); inconclusive = no clear call, values can overlap the other calls; inactive = mostly above about 0.92. The list shows a part of the results.
Pick one: 1 for active, -1 for inactive

Solved cases below.
• CC(CCC(=O)O)[C@H]1CCC2C3CC[C@@H]4C[C@H](O)CC[C@]4(C)C3CC[C@@]21C (stereo partly drawn) = 1
• COC(=O)CCC(C)C1CCC2C3CC[C@@H]4C[C@H](O)CC[C@]4(C)C3C[C@H](O)[C@]12C (stereo partly drawn) = -1
• Cc1cc(O)c(C=O)c2c1C(=O)Oc1c(COC(=O)/C=C/C(=O)O)c(O)c(C(=O)O)c(C)c1O2 = -1
• Cc1cc(O)c(C=O)c2c1C(=O)Oc1c(C)c(O)c3c(c1O2)C(O)OC3=O (stereo not drawn) = -1
• CC(CCC(=O)O)[C@H]1CCC2C3CC[C@@H]4C[C@H](O)CC[C@]4(C)C3C[C@H](O)[C@@]21C (stereo partly drawn) = -1

Task: # outcome recorded in this test, key = COc1cc(C(=O)O)c2c(c1C)OC(=O)c1c(C)cc(O)c(C=O)c1O2
Output: -1

Task: # outcome recorded in this test, key = CC(C)CCCC(C)C1CCC2C3CC[C@H]4CCCC[C@]4(C)C3CC[C@]12C (stereo partly drawn)
Output: -1

Task: # outcome recorded in this test, key = CC(CCC(=O)O)[C@H]1CCC2C3C(C[C@H](O)[C@@]21C)[C@@]1(C)CC[C@@H](O)C[C@H]1C[C@H]3O (stereo partly drawn)
Output: -1

###

# normalized growth values compiled below
assay: chemical genetic growth profiling, strain panel (AID 1159580);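 note: tested at 20 µM; growth read once vehicle control cultures reached saturation at 30 °C; 1 = growth at the plate median or of vehicle wells; lower values mean less growth of the strain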; settings: S. cerevisiae deletion strains, growth OD, locus YLR330W, strain CHS5, active compounds read low
The whole screen tested about 5,500 compounds, of which about 2,000 (36%) were called active. Roughly 18% stayed inconclusive and do not appear here. This is one part of the list.
API doc: respond with a numeric literal and nothing else, no unit.

• CO[C@]12C[C@@H](COC(=O)c3cncc(Br)c3)CN(C)[C@@H]1Cc1cn(C)c3cccc2c13 = 1.01
• Cc1cc(O)c(C=O)c2c1C(=O)Oc1c(COC(=O)/C=C/C(=O)O)c(O)c(C(=O)O)c(C)c1O2 = 0.971
• CC1CCC2(OC1)OC1CC3C4CCC5C[C@@H](O)CCC5(C)C4=CCC3(C)C1[C@@H]2C (some centres not stated) = 0.993
• CCCCCC1C(=O)CCC1CC(=O)O (configuration not stated) = 0.993
• CC(C)CCCC(C)C1CCC2C3CC[C@H]4CCCC[C@]4(C)C3CC[C@]12C (some centres not stated) = 0.999

Measured normalized growth of CC(=O)O[C@H]1CC[C@]2(C)C3=CC(=O)[C@@]4(C)C(C[C@@H]5OC6(OCC(C)CC6Br)[C@@H](C)[C@@H]54)C3CC[C@H]2C1 (some centres not stated) : 0.997

Measured normalized growth of CC(CN(C)C)CN1c2ccccc2Sc2ccccc21 (configuration not stated) : 0.999

Measured normalized growth of COC(=O)CCC(C)[C@H]1CCC2C3C(C[C@H](O)[C@@]21C)[C@@]1(C)CC[C@@H](O)C[C@H]1C[C@H]3O (some centres not stated) : 1.01

Measured normalized growth of NC(N)=O : 0.988

Measured normalized growth of CN(C)CCC(c1ccc(Br)cc1)c1ccccn1 (configuration not stated) : 0.992

Measured normalized growth of C[C@]12C=CC(=O)C=C1CCC1C3C[C@@H](O)[C@](O)(C(=O)CO)[C@@]3(C)C[C@H](O)[C@@]12F (some centres not stated) : 1.01

Measured normalized growth of CC(CN(C)C)CN1c2ccccc2CCc2ccccc21 (configuration not stated) : 1.01

Measured normalized growth of CCC(=O)Nc1ccc(Cl)c(Cl)c1 : 0.995

Measured normalized growth of N[C@@H]1[C@@H](O)[C@H](O)[C@@H](CO)O[C@H]1O : 1

Measured normalized growth of CC(CCC(=O)O)[C@H]1CCC2C3C(C[C@H](O)[C@@]21C)[C@@]1(C)CC[C@@H](O)C[C@H]1C[C@H]3O (some centres not stated) : 1.01

Measured normalized growth of CC(CCC(=O)O)[C@H]1CCC2C3CC[C@@H]4CCCC[C@]4(C)C3CC[C@@]21C (some centres not stated) : 0.999

Measured normalized growth of CCCCCC1C(=O)CCC1CC(=O)OC (configuration not stated) : 0.97

###

# normalized growth values compiled below
assay: chemical genetic growth profiling, strain panel (AID 1159580);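 note: tested at 20 µM; growth read once vehicle control cultures reached saturation at 30 °C; 1 = growth at the plate median or of vehicle wells; lower values mean less growth of the strain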; settings: S. cerevisiae deletion strains, growth OD, locus YMR307W, strain GAS1, active compounds read low
About 2,000 (36%) of roughly 5,500 compounds were called active. About 18% were inconclusive and are not listed. This is one part of the list.
API doc: respond with a numeric literal and nothing else, no unit.

Previously resolved entries follow.
- C=C1C(C2(C)C=CC(=O)C(C)(C)C2CC(=O)OC)CC[C@@]2(C)[C@H](c3ccoc3)OC(=O)C3OC132 (stereo not given in full): 1.16
- CC(CCC(=O)O)[C@H]1CCC2C3CC[C@@H]4C[C@H](O)CC[C@]4(C)C3CC[C@@]21C (stereo not given in full): 0.456
- NC(=O)C(=O)O: 1
- O=c1cc(-c2ccccc2)oc2c(O)c(O)ccc12: 0.709
- CC[C@H](CCC(C)[C@H]1CCC2C3CCC4C[C@@H](O)CC[C@]4(C)C3CC[C@@]21C)C(C)C (stereo not given in full): 0.973

Below: the item to evaluate.
Measured normalized growth of C[C@@H]1O[C@@H](O[C@H]2C[C@@H](O)[C@]3(CO)C4C(CC[C@]3(O)C2)[C@@]2(O)CC[C@H](C3=CC(=O)OC3)[C@@]2(C)C[C@H]4O)[C@H](O)[C@H](O)[C@H]1O (stereo not given in full) : 1.17
